Assay: Oral bioavailability in fasted rat at 10 mg/kg after 24 hrs
Type: ADME, organism-based
Settings: in vivo
Field: bioavailability. Provide a value for each of the compounds that follow.
Give bare numbers, in %.

Qu. Which measured bioavailability value corresponds to Cn1c(N2CCCN(CCCN3c4ccccc4CCc4ccc(C(=O)O)cc43)CC2)cc(=O)n(C)c1=O ?
Ans. 33

Please look at the items below and tell me bioavailability for each one, in order.
1. Cn1c(N2CCCN(CCCN3c4ccccc4COc4ccc(C(=O)O)cc43)CC2)cc(=O)n(C)c1=O
2. Cn1c(N2CCN(CC/C=C3/c4ccccc4COc4ccc(CC(=O)O)cc43)CC2)cc(=O)n(C)c1=O
3. Cn1c(N2CCCN(CCCN3c4ccccc4CCc4ccc(C(C)(C)C(=O)O)cc43)CC2)cc(=O)n(C)c1=O

Ans.
1. 23
2. 76
3. 14

----------
Field: Papp A→B at 2 h. Provide a value for each of the compounds that follow.
Test: Permeability from apical to basolateral side of human Caco2 cells after 120 mins
Conditions: Caco-2
Give bare numbers, in ×10⁻⁶ cm/s.

Qu. Which measured Papp A→B at 2 h value corresponds to Cn1c(N2CCN(CCCN3c4ccccc4COc4ccc(CC(=O)O)cc43)CC2)cc(=O)n(C)c1=O ?
Ans. 3

Qu. Which measured Papp A→B at 2 h value corresponds to Cn1c(N2CCCN(CCCN3c4ccccc4COc4ccc(C(=O)O)cc43)CC2)cc(=O)n(C)c1=O ?
Ans. 6.3

Qu. Which measured Papp A→B at 2 h value corresponds to Cn1c(N2CCCN(CC/C=C3/c4ccccc4COc4ccc(CC(=O)O)cc43)CC2)cc(=O)n(C)c1=O ?
Ans. 4

Qu. Which measured Papp A→B at 2 h value corresponds to Cn1c(N2CCCN(CC/C=C3/c4ccccc4COc4ccc(C(=O)O)cc43)CC2)cc(=O)n(C)c1=O ?
Ans. 3.8

Qu. Which measured Papp A→B at 2 h value corresponds to Cn1c(N2CCCN(CCCN3c4ccccc4CCc4ccc(C(=O)O)cc43)CC2)cc(=O)n(C)c1=O ?
Ans. 4.4

Qu. Which measured Papp A→B at 2 h value corresponds to Cn1c(N2CCN(CC/C=C3/c4ccccc4COc4ccc(CC(=O)O)cc43)CC2)cc(=O)n(C)c1=O ?
Ans. 7.3

Qu. Which measured Papp A→B at 2 h value corresponds to Cn1c(N2CCN(CC/C=C3\c4ccccc4COc4ccc(CC(=O)O)cc43)CC2)cc(=O)n(C)c1=O ?
Ans. 4.7

Next item in the queue.
Qu. Which measured Papp A→B at 2 h value corresponds to Cn1c(N2CCCN(CCCN3c4ccccc4COc4ccc(C(C)(C)C(=O)O)cc43)CC2)cc(=O)n(C)c1=O ?
Ans. 4.6

----------
Molecular target: Histamine H1 receptor (Homo sapiens, UniProt P35367)
Sequence (P35367 whole entry): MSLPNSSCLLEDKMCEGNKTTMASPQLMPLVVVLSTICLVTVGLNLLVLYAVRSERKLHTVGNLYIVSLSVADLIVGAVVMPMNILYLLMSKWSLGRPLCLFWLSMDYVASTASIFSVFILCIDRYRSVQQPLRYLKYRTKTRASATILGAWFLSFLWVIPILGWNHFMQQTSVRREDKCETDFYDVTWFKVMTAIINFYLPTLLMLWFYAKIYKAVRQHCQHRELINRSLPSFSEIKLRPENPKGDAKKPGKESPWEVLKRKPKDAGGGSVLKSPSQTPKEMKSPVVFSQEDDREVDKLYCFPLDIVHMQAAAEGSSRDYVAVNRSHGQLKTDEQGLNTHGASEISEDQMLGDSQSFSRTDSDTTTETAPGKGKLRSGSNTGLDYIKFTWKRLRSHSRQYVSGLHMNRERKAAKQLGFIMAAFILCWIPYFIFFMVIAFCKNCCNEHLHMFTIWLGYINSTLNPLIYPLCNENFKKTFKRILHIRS
Experiment: Displacement of [3H]pyrilamine from human histamine H1 receptor expressed in CHO-K1 cells after 60 mins by scintillation counting
Assay type: cell-based
Field: pIC50. Provide a value for each of the molecules that follow.
Numbers only, as −log10 of the molar value.

Worked cases, answers included:
Qu. Which measured pIC50 value corresponds to Cn1c(N2CCCN(CC/C=C3/c4ccccc4CCc4ccc(CC(=O)O)cc43)CC2)cc(=O)n(C)c1=O ?
Ans. 6.87

Qu. Which measured pIC50 value corresponds to Cn1c(N2CCN(CC/C=C3/c4ccccc4COc4ccc(CC(=O)O)cc43)CC2)cc(=O)n(C)c1=O ?
Ans. 7.08

Qu. Which measured pIC50 value corresponds to Cn1c(N2CCCN(CC/C=C3/c4ccccc4COc4ccc(C(=O)O)cc43)CC2)cc(=O)n(C)c1=O ?
Ans. 7.20

Qu. Which measured pIC50 value corresponds to Cn1c(N2CCCN(CCCN3c4ccccc4COc4ccc(C(C)(C)C(=O)O)cc43)CC2)cc(=O)n(C)c1=O ?
Ans. 6.82

Qu. Which measured pIC50 value corresponds to Cn1c(N2CCCN(CCCN3c4ccccc4COc4ccc(CC(=O)O)cc43)CC2)cc(=O)n(C)c1=O ?
Ans. 6.89

Qu. Which measured pIC50 value corresponds to Cn1c(N2CCCN(CCCN3c4ccccc4CCc4ccc(C(C)(C)C(=O)O)cc43)CC2)cc(=O)n(C)c1=O ?
Ans. 7.12

Please look at the items below and tell me pIC50 for each one, in order.
1. Cn1c(N2CCCN(CCCN3c4ccccc4CCc4ccc(C(=O)O)cc43)CC2)cc(=O)n(C)c1=O
2. Cn1c(N2CCN(CCCN3c4ccccc4COc4ccc(C(=O)O)cc43)CC2)cc(=O)n(C)c1=O
3. Cn1c(N2CCCN(CC/C=C3/c4ccccc4COc4ccc(CC(=O)O)cc43)CC2)cc(=O)n(C)c1=O
4. Cn1c(N2CCCN(CC/C=C3/c4ccccc4CCc4ccc(C(=O)O)cc43)CC2)cc(=O)n(C)c1=O
5. CC(C(=O)O)c1ccc2c(c1)N(CCCN1CCCN(c3cc(=O)n(C)c(=O)n3C)CC1)c1ccccc1CO2 (stereo unspecified)

Ans.
1. 7.15
2. 6.85
3. 7.04
4. 6.82
5. 6.89
